bioavailability by entry:
protocolNotes: Oral bioavailability in dog (dose 1 mg/kg)
Assay type: ADME, organism-based, Canis lupus familiaris
measurementParameters: in vivo

# compound, bioavailability (%)
measured = [
    ("COCCN(Cc1ccccc1)c1nc(C)nc2c1nnn2-c1ccc(C(C)C)cc1Br", 7.3),
    ("CCCCN(CC)c1nc(C)nc2c1nnn2-c1ccc(C(C)C)cc1Br", 18.4),
    ("CCC(COC)Nc1nc(C)nc2c1nnn2-c1ccc(C(C)C)cc1Br (stereo in doubt; 4x)", 53.1),
]

----------
protocolNotes: The volume of distribution at steady state was measured in dogs after intravenous administration of 1 mg/kg dose
Assay type: ADME, organism-based, Canis lupus familiaris
Design: dose 1 mg/kg, route intravenous
measurementParameters: dog, in vivo, read-out: Vss

# molecule, Vd / L/kg
rows = [
    ("CCCCN(CC)c1nc(C)nc2c1nnn2-c1ccc(C(C)C)cc1Br", 7.54),
    ("COCCN(Cc1ccccc1)c1nc(C)nc2c1nnn2-c1ccc(C(C)C)cc1Br", 24.7),
    ("COCCN(CCOC)c1nc(C)nc2c1nnn2-c1ccc(C(C)C)cc1Br", 15.6),
    ("CCC(COC)Nc1nc(C)nc2c1nnn2-c1ccc(C(C)C)cc1Br (stereo in doubt; 4x)", 10.1),
]
